# protocol: Specific activity of purified CHI, absorbance decrease at 384 nm, hesperetin chalcone; further: unit not given here
# Format: biochemical
# conditionDetails: purified CHI in 50 mM PBS, 100 μM substrate, 25° C.
# Procedure: E. coli BL21 (DE3) cells containing one of the pET28b plasmids from Table 2 or Table 3 were used to inoculate 1 L LB medium at OD of 0.1. […] The activity of the respective purified enzyme was determined by measuring the absorbance decrease at 384 nm in the reaction mix (CHI in 50 mM PBS with 100 μM of either naringenin chalcone, hesperetin chalcone, eriodictyol chalcone, homoeriodictyol chalcone or 4-O-methyl butein at 25° C.).
Listed here are molecules together with their documented Specific activity, Hesperetin chalcone.
measureName: Specific activity, Hesperetin chalcone

INSERT INTO assay_data (molecule, observed) VALUES
  ('CHIera Mut4: Chalcone isomerase variant 4 from Eubacterium ramulus, genetically engineered (protein, listed as Eubacterium ramulus) MADFKFEPMRSLIYVDCVSEDYRPKLQRWIYKVHIPDSISQFEPYVTKYAFYPSFPIPPQGDRFGYARMQLTEHHWLVSELDPRLEIKAIAETFPMDVLVWQGQIPAAAHTDAQIDSDGDAGRAAKKSNNAEGNPFIFAFLPMWWEKDLKGKGRTIEDGANYRFNMTIGFPEGVDKAEGEKWLFEKVVPILQAAPECTRVLASAVKKDINGCVMDWVLEIWFENQSGWYKVMVDDMKALEKPSWAQQDAFPFLKPYHNVCSAAVADYTPSNNLANYRGYITMR', 4.7),
  ('CHI2: Chalcone isomerase from Tepidanaerobacter acetatoxydans, access no. WP_013779275.1 (protein, Tepidanaerobacter acetatoxydans) DTEFKPMRSLIYVGVAKEEYRHKLKNWLYRYHIPDSISQFAPYVTKYAFYNALPVPPEGERFGAYNMQLTEHYWLINPMNPQLKIKAFTEFFPVDVLKWQGNIPDDADADSVNIEGDAARSSGGDNGMPPFIFAFIPFWWEEDFKGAGRTVEDGPNYRWQFLIQYPNGISLEEGDQWFYKKLVPAFKEMPEVNRFLTSRVIRDVNDCQFHRVIEMWFDGPEEWYRAAVEKGKSIERPHWATAEEFPYLKPKFQIASLFLTDIADSDNYSQYRGYITMR', 93.5);
